B1: CPOX (parent)
chain: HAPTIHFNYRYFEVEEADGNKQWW

# Variants of: B1
# ASSAY_COMMENT: protein stability index of a GFP-peptide fusion (GPS, HEK-293T) (PSI 1-6); higher = more stable;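 note: lentivirally expressed fusions sorted by FACS into six bins by GFP to DsRed ratio, PSI derived from sequencing read proportions per bin multiplied by bin number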
# EXPERIMENTAL_CONTEXT: c terminus: a fixed tail appended
Give measured protein stability index for each item. Keep answers brief.
Lab note: write the figure by itself, no unit.

Value of protein stability index reported for the variant HAPTIHFNNRYFEVEEADGNKQWW [Y9N] is 3.16

Per the records, this variant ( HAPTIHFNYRYFEVEEADGNKQNW [W23N] ) has protein stability index equal to 3.71

Data point: HAPTIHFNYRYFEVEEADGNKHWW [Q22H] ; protein stability index = 2.03

The variant listed as HAPTIHFNYRYFEVEEADGNKQVW [W23V] has a reported protein stability index of 2.36

Per the records, this variant ( HAPTIHFNYRYFEVEEASGNKQWW [D18S] ) has protein stability index equal to 2

The variant listed as HALTIHFNYRYFEVEEADGNKQWW [P3L] shows protein stability index equal to 2.49

variant HAPTIHFNYRYFEVNEADGNKQWW [E15N] , protein stability index observed: 1.84

Notebook: HAHTIHFNYRYFEVEEADGNKQWW [P3H] , protein stability index read as 2.2

Reported protein stability index ( HAPTIHFNYRYFHVEEADGNKQWW [E13H] ) = 2.09

Consider HAPTIHFNYRYFEVEEPDGNKQWW [A17P] . Its measured protein stability index is 2.05

For record HAPTIHFNYRYFEVEEADGNKQYW [W23Y] the listed protein stability index is 2.33

Item: HAPTIHFNYRYFEVEEADGFKQWW [N20F] | protein stability index: 1.07

// sample HAPTIHFNYRYFEVEEADGCKQWW [N20C] , its protein stability index was 1.87

Form field protein stability index, entry HAPTIHFNYRYFEVEEAVGNKQWW [D18V] : 1.68

protein stability index reported for this variant HAPTIHFNYRYFEVPEADGNKQWW [E15P] : 2.13

Lab note: measured protein stability index of HAPTIHFNYRYFEVEEADGNPQWW [K21P] was 2.25

Note to self: protein stability index recorded for HAQTIHFNYRYFEVEEADGNKQWW [P3Q] was 1.65

// protein stability index value for HAPTIHFNYRYFEVIEADGNKQWW [E15I] : 2.7

// protein stability index value for HAPTIHFNYRYFEVEEVDGNKQWW [A17V] : 1.9

Entry HAPTIHFNYRYFEVEEADGNKWWW [Q22W] ; protein stability index = 2

Briefly, protein stability index measured for HAPTIHFNYRYFEVEEAQGNKQWW [D18Q] : 3.07

The value of protein stability index measured for the variant HAPTIHFNYRYFEVEEADGQKQWW [N20Q] turned out to be 2.95

# protein stability index of HGPTIHFNYRYFEVEEADGNKQWW [A2G] = 2.43

Please fill in: protein stability index reported for HAPKIHFNYRYFEVEEADGNKQWW [T4K] = 2.26

protein stability index in this record for HAPTIFFNYRYFEVEEADGNKQWW [H6F] : 1.52

Note to self: protein stability index recorded for HAPTIHFNYRYFEVEMADGNKQWW [E16M] was 2.81

For this variant ( HAPTIHFNYRYFEVEPADGNKQWW [E16P] ), measured protein stability index is 1.83

Given item HAPTIHFNYRKFEVEEADGNKQWW [Y11K] , the value recorded as its protein stability index is 2.84

Per the records, this variant ( HAMTIHFNYRYFEVEEADGNKQWW [P3M] ) has protein stability index equal to 1.97

Reported protein stability index ( HAPTIHFNYRYFEVEEADGNKQWF [W24F] ) = 2.69

Lab book: protein stability index of HAPTIHFNYRVFEVEEADGNKQWW [Y11V] noted as 2.12

HARTIHFNYRYFEVEEADGNKQWW [P3R] has a reported protein stability index of 2.69

Briefly, protein stability index measured for HAPTIHFNYRYFEVEEADGNKYWW [Q22Y] : 2.5

Form field protein stability index, entry HAPTIHFNYRYFEVEEADGHKQWW [N20H] : 2.38

Lab note: measured protein stability index of HAPTIHFNYRYFEVEEADGNKQKW [W23K] was 3.35

Record summary for HAPTFHFNYRYFEVEEADGNKQWW [I5F] : reported protein stability index = 2.44

Quick note, protein stability index for HAPTIMFNYRYFEVEEADGNKQWW [H6M] landed at 1.94

For HAPTIHFNYRYFEVEEANGNKQWW [D18N] the variant record lists protein stability index as 2.32

Lab book: protein stability index of HAPLIHFNYRYFEVEEADGNKQWW [T4L] noted as 2.31

For HAPTIHFNYRYFEVEEAIGNKQWW [D18I] the variant record lists protein stability index as 1.5

Just so you know, measured protein stability index for HAPTIHFNYRYFAVEEADGNKQWW [E13A] came out at 1.97

Sample HAPTIHFNYYYFEVEEADGNKQWW [R10Y] ; protein stability index observed: 2.27

The recorded protein stability index for entry HAPTIHFNYRYFEVEEADGNKQWD [W24D] equals 3.82

HAPTIHFNYRYFEVEEGDGNKQWW [A17G] yielded protein stability index of 2.57

Lookup result for HAPTIHFNYRYFEVEEADGNKQLW [W23L] ; measured protein stability index: 2.73

variant HAPTIHFNYRYFEVEEADVNKQWW [G19V] , protein stability index observed: 2.11

Entry HAPTIHFNYRYFEVEETDGNKQWW [A17T] ; protein stability index = 2.35

The variant HAPTIHFNYRYFEVECADGNKQWW [E16C] showed protein stability index equal to 1.67

Please fill in: protein stability index reported for HAPTIHFNYRYFEVEEADGNYQWW [K21Y] = 1.95

protein stability index reported for this variant HKPTIHFNYRYFEVEEADGNKQWW [A2K] : 2.38

The reported value for HAPTIHFNYRYFPVEEADGNKQWW [E13P] in terms of protein stability index is 1.86

HAPTISFNYRYFEVEEADGNKQWW [H6S] yielded protein stability index of 2.31

Value of measured protein stability index for the entry HAPTIHFNYRYFEVEEADGKKQWW [N20K] : 3.29

So, HAATIHFNYRYFEVEEADGNKQWW [P3A] ? Its protein stability index was 1.97

For HANTIHFNYRYFEVEEADGNKQWW [P3N] the variant record lists protein stability index as 2.09

Entry HAPTIHFNYRYFEVEEAGGNKQWW [D18G] — recorded protein stability index = 2.45

The recorded protein stability index for HAPTIHFNYRYFEVEEADGYKQWW [N20Y] is 1.66

protein stability index recorded for this variant, HAPTICFNYRYFEVEEADGNKQWW [H6C] , is 1.9

// protein stability index value for HAPTIHFNYRYFEVEEADGNKQWR [W24R] : 3.11

# protein stability index of HAPTIVFNYRYFEVEEADGNKQWW [H6V] = 1.61

For record HAPTIHFNYMYFEVEEADGNKQWW [R10M] the listed protein stability index is 2.37

For record AAPTIHFNYRYFEVEEADGNKQWW [H1A] the listed protein stability index is 2.46

// recorded protein stability index for HAPTIHFNYRYFEVEEADGNEQWW [K21E] : 2.53

The value of protein stability index measured for the variant HAPTIHFNYRYFEVEEADGNAQWW [K21A] turned out to be 2.44

The reported protein stability index of the variant HAPTIHFNYRYFEVEEADGNKCWW [Q22C] was 1.96

The reported protein stability index of the variant HAPTIHFNYRYFEVEEADGWKQWW [N20W] was 1.88

# protein stability index of HAPTIHFNIRYFEVEEADGNKQWW [Y9I] = 2.22

Entry HAPTIHFNYRYFEVEEADGNKQIW [W23I] ; protein stability index = 2.58

Consider HAPTSHFNYRYFEVEEADGNKQWW [I5S] . Its measured protein stability index is 2.65

Field protein stability index (entry HAPTIHFNYRYFEVEEADGNKQWQ [W24Q] ) reads 2.34

Reported protein stability index of HAPTIHFYYRYFEVEEADGNKQWW [N8Y] : 2.02

The variant listed as HAPTIHFNYRYFEAEEADGNKQWW [V14A] has a reported protein stability index of 2.52

According to the records, this variant HNPTIHFNYRYFEVEEADGNKQWW [A2N] displays protein stability index of 2.46

Short answer for HAPTIHFNYRYFEVEEADGNKQWK [W24K] : protein stability index was 3.24

Measured protein stability index of HAPTIHFNYRYFEVEEACGNKQWW [D18C] : 1.61

Field protein stability index (entry HAPTIHFNYRIFEVEEADGNKQWW [Y11I] ) reads 2.16

Field protein stability index (entry HAPTIHFNYRYFEVEEADGNLQWW [K21L] ) reads 1.74

protein stability index reading for HAPTIHFNYRYFEVEEADGNKQPW [W23P] : 3.34

Quick note, protein stability index for HAPTIHFNYRAFEVEEADGNKQWW [Y11A] landed at 3.23

The variant listed as HAVTIHFNYRYFEVEEADGNKQWW [P3V] shows protein stability index equal to 1.8

According to the records, this variant HAPTIHFMYRYFEVEEADGNKQWW [N8M] displays protein stability index of 2.53

The variant listed as HAPTIHFNYRYFEVEGADGNKQWW [E16G] shows protein stability index equal to 2.21

Form field protein stability index, entry HAPTIHFNYRYFEVEEADGSKQWW [N20S] : 2.08

HAPTIHFNYRYTEVEEADGNKQWW [F12T] has a reported protein stability index of 3.08
